# systemUnderTest: Metabotropic glutamate receptor 2 (Homo sapiens, UniProt Q14416)
# Sequence (Q14416 whole entry): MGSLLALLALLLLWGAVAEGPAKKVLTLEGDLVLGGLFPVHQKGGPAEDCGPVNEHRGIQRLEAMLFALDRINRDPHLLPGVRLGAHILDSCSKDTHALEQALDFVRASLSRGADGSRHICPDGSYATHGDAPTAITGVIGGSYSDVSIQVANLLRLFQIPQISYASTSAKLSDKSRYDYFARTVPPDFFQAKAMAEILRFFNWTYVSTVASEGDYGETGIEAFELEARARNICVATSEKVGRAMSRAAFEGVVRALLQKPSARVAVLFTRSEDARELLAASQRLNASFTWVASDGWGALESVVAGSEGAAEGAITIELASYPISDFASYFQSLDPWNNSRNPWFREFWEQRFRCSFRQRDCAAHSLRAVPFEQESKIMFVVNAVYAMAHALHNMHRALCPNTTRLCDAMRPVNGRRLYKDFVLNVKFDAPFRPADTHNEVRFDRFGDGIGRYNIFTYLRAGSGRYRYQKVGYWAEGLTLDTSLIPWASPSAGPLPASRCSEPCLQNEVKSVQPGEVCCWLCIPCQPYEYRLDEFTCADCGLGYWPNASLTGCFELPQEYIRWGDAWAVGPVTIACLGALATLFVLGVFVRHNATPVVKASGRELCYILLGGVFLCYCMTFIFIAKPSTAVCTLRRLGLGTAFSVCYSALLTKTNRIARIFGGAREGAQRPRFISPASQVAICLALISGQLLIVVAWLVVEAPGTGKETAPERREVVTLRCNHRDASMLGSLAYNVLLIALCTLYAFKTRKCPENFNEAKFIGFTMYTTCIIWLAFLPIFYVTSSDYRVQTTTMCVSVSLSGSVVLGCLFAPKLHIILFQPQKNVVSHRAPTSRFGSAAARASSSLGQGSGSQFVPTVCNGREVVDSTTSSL
# experimentalDetails: In Vitro Activity Test for mGluR2: Experimental materials: HEK/mGluR2 cell line ([…] transfected HEK cell line), DMEM (FBS) medium, positive control LY487379 (purchased from sigma; CAS: to 352317-17-1)Experimental instrument: FLIPR Tetra real-time fluorescence imaging analysis systemExperimental method: HDB Fluo-8 calcium fluorescence detection methodExperimental principle: HDB Fluo-8 calcium ion fluorescence detection method is a fast, simple and reliable fluorescence detection method of intracellular calcium concentration changes. The Fluo 8-AM fluorescent dye is an acetyl methyl ester derivative of Fluo 8 which can easily penetrate into the cell membrane by culture. The fluorescent dye in the cell will be hydrolyzed by intracellular esterase, the resulting Fluo 8 as a polar molecule, cannot easily pass through the lipid bimolecular membrane, and will be retained in the cell, and combine with calcium (Ca2+) to produce fluoresces.Cells expressing GPCR receptor protein (mGluR2) were first calibrated with a calcium ion sensitive fluorescent probe and then stimulated with the compound. After stimulation, the receptor activates the calcium ion mobilization, and the fluorescent probe captures the calcium ion to induce the fluorescence signal. The signal can be read by a fluoroscopy plate. The fluorescent plate reader contains a sample addition for compound addition, thus enabling the change of the fluorescence value of the compound be read in real time.
reportedEndpoint: EC50 (µM)

# lineNotation, quantityUnit, quantitativeResult
rows = [
    ("COC(=O)c1ccc(-c2ccn3c(CC4CC4)nnc3c2Cl)c(F)c1", "µM", 0.91),
    ("Clc1c(-c2ccc3c(c2)OCO3)ccn2c(CC3CC3)nnc12", "µM", 0.89),
    ("c1cc2c(cc1-c1ccn3c(CC4CC4)nnc3c1)OCO2", "µM", 0.97),
]
